Value source: patent US10669272B2

- assayed target: human DGKα (Homo sapiens, UniProt P23743)
- Construct: TVMV protease cleavage site (C); Hexa-His (C); made in house; host or cells: Sf9 insect cells (baculovirus, Bac-to-Bac)
- Sequence (P23743 with tags, fused parts or gaps): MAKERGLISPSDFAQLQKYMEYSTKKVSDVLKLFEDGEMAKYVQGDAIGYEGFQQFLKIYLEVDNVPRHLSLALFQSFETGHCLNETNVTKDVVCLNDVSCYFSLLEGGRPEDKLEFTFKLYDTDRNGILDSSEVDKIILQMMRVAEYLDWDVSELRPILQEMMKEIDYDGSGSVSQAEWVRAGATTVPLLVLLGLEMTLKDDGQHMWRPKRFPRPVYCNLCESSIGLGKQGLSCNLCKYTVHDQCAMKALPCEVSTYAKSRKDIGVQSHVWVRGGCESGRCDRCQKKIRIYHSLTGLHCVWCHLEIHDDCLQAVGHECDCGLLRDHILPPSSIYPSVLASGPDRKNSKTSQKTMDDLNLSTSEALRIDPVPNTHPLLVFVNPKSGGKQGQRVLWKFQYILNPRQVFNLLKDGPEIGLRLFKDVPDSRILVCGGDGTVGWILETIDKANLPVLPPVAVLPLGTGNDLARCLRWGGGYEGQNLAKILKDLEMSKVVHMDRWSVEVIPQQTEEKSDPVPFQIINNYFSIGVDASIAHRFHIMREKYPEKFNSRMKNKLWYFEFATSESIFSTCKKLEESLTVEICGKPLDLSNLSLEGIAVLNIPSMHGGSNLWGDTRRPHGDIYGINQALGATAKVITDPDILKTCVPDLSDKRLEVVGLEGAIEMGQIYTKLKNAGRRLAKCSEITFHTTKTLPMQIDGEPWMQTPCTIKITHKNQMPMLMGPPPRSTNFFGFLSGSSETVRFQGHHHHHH
- protocol notes: DGKα LIPGLO assay (extruded liposome substrate), in vitro DGK inhibition
- Assay type: biochemical
- measurement parameters: liposome (LIPGLO) assay; read-out: DGKa LIPGLO IC50
pIC50: −log10 of the molar value.
Form field: pIC50 (one value per entry).

{"compound": "C[C@@H]1CN(c2cc(=O)n(C)c3ccc(C#N)nc23)[C@@H](C)CN1C(COC(F)F)c1ccc(F)cc1 (single isomer, unassigned) [Example 1188]", "pIC50": 7.54}
{"compound": "C[C@@H]1CN(c2cc(=O)n(C)c3ccc(C#N)nc23)[C@@H](C)CN1C(c1ccc(F)cc1)c1cncn1C (stereo partly drawn) [Example 704]", "pIC50": 4.07}
{"compound": "C[C@@H]1CN(c2c(F)c(=O)n(C)c3ccc(C#N)nc23)[C@@H](C)CN1C(c1ccc(F)cc1)c1ccccc1F (stereo partly drawn) [Example 334]", "pIC50": 6.30}
